- Test system: Plasmodium berghei
- assay summary: Screen against P. berghei liver stage (PbLuc), transformed with Luciferase, at 10uM
- Type: functional, HepG2
- condition info: tested at 10 uM
Hit rate of the full screen: of about 69,000 compounds, about 8,600 (12%) showed an effect of 50% or more. For the sample, strong results were picked, then their nearest neighbours and some compounds at random.
Mark yes (1) only when INHIBITION stays strictly below 20%. Values equal to the cut-off are no (0).

compound: CC(O)CN1CCC(CNCc2ccccc2C(F)(F)F)CC1 (centres undefined)
target or test system: Plasmodium berghei
label value: yes (1)
//
compound: COCCN(C)C[C@@H]1CN(C(=O)c2c(F)ccc(OC)c2F)C[C@@H]1CO
target or test system: Plasmodium berghei
label value: no (0)
//
compound: CC(C)CN1CCn2c(COCc3cccnc3)nnc2C1
target or test system: Plasmodium berghei
label value: yes (1)
//
compound: CCN(C(C)=O)c1nc(CN2CCCC2Cn2cncn2)cs1 (centres undefined)
target or test system: Plasmodium berghei
label value: yes (1)
//
compound: COc1cc(C)nc(N2CCN(C(=O)CSC)CC2)n1
target or test system: Plasmodium berghei
label value: yes (1)
//
compound: COCc1cnc2n1CCN(C(=O)C1=CCCC1)C2C (centres undefined)
target or test system: Plasmodium berghei
label value: yes (1)
//
compound: Cc1cnn(CC2CCCN2Cc2nc3ccccc3c(=O)[nH]2)c1 (centres undefined)
target or test system: Plasmodium berghei
label value: no (0)
//
compound: Cc1ncoc1C(=O)N1CCn2c(COc3cccnc3)cnc2C1C (centres undefined)
target or test system: Plasmodium berghei
label value: yes (1)
//
compound: Cc1ccc(-c2cc(N)c(=O)n(CC(=O)NCC3CCCCC3)n2)s1
target or test system: Plasmodium berghei
label value: no (0)
//
compound: N#Cc1ccccc1OCCN1CCCCC1Cn1cncn1 (centres undefined)
target or test system: Plasmodium berghei
label value: yes (1)
//
compound: Cc1nc(CCNC(=O)N2CCC(Cc3cnn(C)c3)C2)cs1 (centres undefined)
target or test system: Plasmodium berghei
label value: yes (1)
//
compound: Cc1cnn(CC2CCCN2CCc2nc3ccccc3c(=O)[nH]2)c1 (centres undefined)
target or test system: Plasmodium berghei
label value: no (0)
//
compound: COCCC1(C(=O)O)CCCN(Cc2cc3c(cc2Cl)OCO3)C1 (centres undefined)
target or test system: Plasmodium berghei
label value: no (0)
//
compound: CCn1ccnc1CN1CCN(c2nc(C)cc(OC)n2)CC1
target or test system: Plasmodium berghei
label value: no (0)
//
compound: Cc1nc(CN2CCCC2Cn2cncn2)nc2ccccc12 (centres undefined)
target or test system: Plasmodium berghei
label value: yes (1)
//
compound: Cc1ccc(C(=O)N2CCc3ncc(Cn4cccn4)n3CC2)cn1
target or test system: Plasmodium berghei
label value: no (0)
//
compound: O=C1CSC(C(F)(F)F)c2c(O)nn(C3CCCCC3)c2N1 (centres undefined)
target or test system: Plasmodium berghei
label value: no (0)
//
compound: O=C(CCN1CCOCC1)Nc1cccc(CNCc2cccs2)c1
target or test system: Plasmodium berghei
label value: no (0)
//
compound: CCOCC(=O)N1CCOCC2(CCN(c3ncccn3)C2)C1 (centres undefined)
target or test system: Plasmodium berghei
label value: yes (1)
//
compound: COCCC1(C(=O)O)CCCN(CCOCc2ccccc2)C1 (centres undefined)
target or test system: Plasmodium berghei
label value: no (0)
//
compound: COCc1cnc2n1CCN(C(=O)c1cc3cc(Cl)ccc3o1)C2C (centres undefined)
target or test system: Plasmodium berghei
label value: no (0)
//
compound: Cc1nc(C)n(CC2CCCN2Cc2nc(C)c3ccccc3n2)n1 (centres undefined)
target or test system: Plasmodium berghei
label value: yes (1)
//
compound: COc1ccc(CN2Cc3nnn(C)c3C(COCCN(C)C)C2)cc1 (centres undefined)
target or test system: Plasmodium berghei
label value: yes (1)
//
compound: O=C(Cn1c(C(F)F)cc2cccnc21)NC1CCCC1
target or test system: Plasmodium berghei
label value: no (0)
//
compound: Cc1ccc(CN2CCC3(CC2)C(=O)N(CCO)CCN3C)o1
target or test system: Plasmodium berghei
label value: yes (1)
//
compound: Cn1cnnc1C1CCCN(Cc2nc(Cc3ccccc3)no2)C1 (centres undefined)
target or test system: Plasmodium berghei
label value: yes (1)
//
compound: CCO[C@@H]1CC[C@H]2[C@H]1OCCN2S(=O)(=O)C1CC1
target or test system: Plasmodium berghei
label value: yes (1)
//
compound: COCc1cnc2n1CCN(C(=O)C1=CCCCC1)C2C (centres undefined)
target or test system: Plasmodium berghei
label value: yes (1)
//
compound: COc1ccc(CCN2CCN(C(=O)c3scnc3C)CC2)cc1
target or test system: Plasmodium berghei
label value: no (0)
//
compound: Cc1ccc(-c2cc(N)c(=O)n(CC(=O)NC3CCCCC3)n2)s1
target or test system: Plasmodium berghei
label value: no (0)
//
compound: COCCN(C)C[C@@H]1CN(C(=O)c2ccc(OC)c(F)c2)C[C@@H]1CO
target or test system: Plasmodium berghei
label value: yes (1)
//
compound: CN1CCc2c(C#N)c(NCC3CCCO3)n3cnnc3c2C1 (centres undefined)
target or test system: Plasmodium berghei
label value: yes (1)
//
compound: Cc1ccc(CN2CCC[C@@H]3CN(C(=O)c4ccco4)C[C@@H]32)o1
target or test system: Plasmodium berghei
label value: yes (1)
//
compound: c1ccc(CO[C@H]2CN(c3ncccn3)C[C@@]23CCCO3)cc1
target or test system: Plasmodium berghei
label value: yes (1)
//
compound: CN(C(=O)c1ccccc1NCC(=O)O)C(C1CC1)C1CC1
target or test system: Plasmodium berghei
label value: no (0)
//
compound: COCCC1(C(=O)O)CCCN(Cc2cc3c(cc2C)OCO3)C1 (centres undefined)
target or test system: Plasmodium berghei
label value: no (0)
//
compound: COCc1cnc2n1CCN(C(=O)c1cnc3ccccc3c1)C2C (centres undefined)
target or test system: Plasmodium berghei
label value: yes (1)
//
compound: CC(C)C(N)CNS(=O)(=O)Cc1cccc2cccnc12 (centres undefined)
target or test system: Plasmodium berghei
label value: no (0)

====

- System: Plasmodium berghei
- assay summary: Screen against P. berghei liver stage (PbLuc), transformed with Luciferase, at 10uM
- Format: functional, HepG2
- condition info: tested at 10 uM
The whole screen tested about 69,000 compounds, of which about 8,600 (12%) showed an effect of 50% or more. Only a selection was taken, and strong results are over-represented in it overall.
Mark yes only when INHIBITION stays strictly below 50%. Values equal to the cut-off are no.

molecule: Cc1noc(C)c1CN1CCOC2(CCCN(c3ccccn3)C2)C1 (centres undefined)
target or test system: Plasmodium berghei
label value: yes

molecule: CC(C)(C)c1ccc(C2(C(=O)NCCS(N)(=O)=O)CC2)cc1
target or test system: Plasmodium berghei
label value: no

molecule: CS(=O)(=O)NCCNC(=O)C1(c2ccc(F)cc2)CC1
target or test system: Plasmodium berghei
label value: yes

molecule: Cc1csc(CN2CCC[C@]3(C[C@@H](Oc4ccccn4)CO3)C2)n1
target or test system: Plasmodium berghei
label value: no

molecule: Cc1csc(CN2CCC[C@]3(C[C@H](Oc4ccccn4)CO3)C2)n1
target or test system: Plasmodium berghei
label value: yes

molecule: Cc1noc(C)c1CN1CCC[C@]2(C[C@@H](Oc3ccccn3)CO2)C1
target or test system: Plasmodium berghei
label value: no

molecule: CC(C)NC(=O)Nc1cccc2c1CCN(S(C)(=O)=O)C2
target or test system: Plasmodium berghei
label value: yes

molecule: Cc1cc(C(=O)N2CCCC2c2noc(C)n2)[nH]n1 (centres undefined)
target or test system: Plasmodium berghei
label value: yes

====

# INHIBITION per record follows
- Test system: Plasmodium berghei
- assay summary: Screen against P. berghei liver stage (PbLuc), transformed with Luciferase, at 10uM
- Format: functional, HepG2
- condition info: tested at 10 uM
In all, about 69,000 compounds went through this assay and about 8,600 (12%) showed an effect of 50% or more. The list comes from a sample in which strong results are over-represented; it also holds close analogues and randomly drawn compounds.
measured parameter: INHIBITION (%)

compound: CN(c1cccnn1)[C@@H]1CC[C@@H]2CN(Cc3ccccc3C(=O)O)C[C@@H]21
measured: 19.65

compound: Cc1cc2ccccc2n1CCC(=O)NCc1ncc[nH]1
measured: 20.5

compound: CNC(=O)C1(c2cnccn2)CCCN1C(=O)c1ncccc1C (stereo not drawn)
measured: 19.6

====

- Tested on: Plasmodium berghei
- assay summary: Screen against P. berghei liver stage (PbLuc), transformed with Luciferase, at 10uM
- Assay type: functional, HepG2
- condition info: tested at 10 uM
The campaign covered roughly 69,000 compounds. About 8,600 (12%) showed an effect of 50% or more. The entries come from a sample that favours strong results as a whole.

compound: COc1ccccc1NC(=O)CC(C)NCCc1sc(C)nc1C (stereo unspecified)
target or test system: Plasmodium berghei
INHIBITION / %: 71.3

compound: CC(C)C(=O)NC1CCCN(C(=O)c2ccc(O)c(Cl)c2)C1 (stereo unspecified)
target or test system: Plasmodium berghei
INHIBITION / %: 66.2

compound: CCC(CNC1CCN(C(=O)N(C)C)CC1)Oc1ccccc1C (stereo unspecified)
target or test system: Plasmodium berghei
INHIBITION / %: 18.2

compound: CC(C)C(=O)NC1CCCN(C(=O)c2cc(Cl)ccc2O)C1 (stereo unspecified)
target or test system: Plasmodium berghei
INHIBITION / %: 18.2

compound: Cc1nc(C)n(CC2CCCN2CC(=O)NC2CCOCC2)n1 (stereo unspecified)
target or test system: Plasmodium berghei
INHIBITION / %: 38.5

compound: CC(C)c1nc(C2CCCN(C(=O)Cn3ccccc3=O)C2)no1 (stereo unspecified)
target or test system: Plasmodium berghei
INHIBITION / %: -7.31

compound: CC(C)C(=O)NC1CCCN(C(=O)c2ccccc2O)C1 (stereo unspecified)
target or test system: Plasmodium berghei
INHIBITION / %: 8.64

compound: CNc1cccc(C2CCN(C(C)=O)CC2)n1
target or test system: Plasmodium berghei
INHIBITION / %: -9.51

compound: CCCNS(=O)(=O)c1cc2c3c(c1)c(C)cc(=O)n3CCC2
target or test system: Plasmodium berghei
INHIBITION / %: 22.85

compound: O=c1[nH]c2c(c(=O)n1C1CCCCC1)CCC2NCCc1ccccc1 (stereo unspecified)
target or test system: Plasmodium berghei
INHIBITION / %: 37.9

compound: CCc1cnc(CCNC(C)CC(=O)Nc2cccc(C)c2C)s1 (stereo unspecified)
target or test system: Plasmodium berghei
INHIBITION / %: 15.6

compound: COc1ccc(NC2CCc3c2[nH]c(=O)n(C2CCCCC2)c3=O)cc1 (stereo unspecified)
target or test system: Plasmodium berghei
INHIBITION / %: 78.4

compound: O=c1[nH]c2c(c(=O)n1C1CCCCC1)CCC2Nc1ccccn1 (stereo unspecified)
target or test system: Plasmodium berghei
INHIBITION / %: 24.2

compound: CCC(CNC1CCN(C(C)=O)CC1)Oc1cccc(C)c1 (stereo unspecified)
target or test system: Plasmodium berghei
INHIBITION / %: 61.5

compound: CCOCC1CN(C(=O)c2cccnc2)Cc2cnn(C)c21 (stereo unspecified)
target or test system: Plasmodium berghei
INHIBITION / %: -2.35

compound: Cc1ccc(C(=O)N2CCCC(NC(=O)C(C)C)C2)c(O)c1 (stereo unspecified)
target or test system: Plasmodium berghei
INHIBITION / %: 54.4
